- SYSTEM: hKOR (Homo sapiens, UniProt P41145)
- Sequence (P41145 whole entry): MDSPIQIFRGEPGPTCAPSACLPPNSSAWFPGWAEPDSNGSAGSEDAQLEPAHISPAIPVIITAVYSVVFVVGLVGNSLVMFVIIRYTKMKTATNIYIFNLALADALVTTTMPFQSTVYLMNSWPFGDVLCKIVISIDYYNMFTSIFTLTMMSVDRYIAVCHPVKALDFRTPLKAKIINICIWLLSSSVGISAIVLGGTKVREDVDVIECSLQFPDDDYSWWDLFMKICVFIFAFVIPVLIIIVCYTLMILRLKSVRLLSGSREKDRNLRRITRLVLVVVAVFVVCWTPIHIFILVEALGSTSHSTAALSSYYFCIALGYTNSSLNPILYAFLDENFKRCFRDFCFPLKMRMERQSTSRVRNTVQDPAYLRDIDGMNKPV
- METHOD DESCRIPTION: Radioligand binding assay (Eurofins Cerep), [3H]U69,593 displacement
- EXPERIMENTAL SETUP: Table B1′; read-out: KOR Ki ± SEM
MEASUREMENT KIND: Ki

| COMPOUND | MEASURED VALUE |
| --- | --- |
| COC(=O)CC1CCN2CCC(O)(c3ccc(F)cc3)CC2C1 (stereo not shown) | > 10 µM |
| COC(=O)C=C1CCN2CCC(O)(c3cccc(OC)c3)CC2C1 (stereo not shown) [drawing 180] | > 10 µM |
| COC(=O)C=C1CCN2CCC(O)(c3ccc(F)cc3)CC2C1 (stereo not shown) | > 10 µM |
| COC(=O)C=C1CCN2CCC(O)(c3cccc(OC)c3)CC2C1 (stereo not shown) [drawing 179] | > 10 µM |
| COC(=O)CC1CCN2CCC(c3ccccc3OC)=CC2C1 (stereo not shown) | > 10 µM |
| COC(=O)CC1CCN2CCC(O)(c3ccccc3OC)CC2C1 (single isomer, unassigned) | > 10 µM |
| COC(=O)CC1CCN2CC=C(c3ccccc3)CC2C1 (stereo not shown) | 0.957 µM |
| COC(=O)CC1CCN2CCC(O)(c3ccccc3)CC2C1 (stereo not shown) [drawing 173] | 3.6 µM |
| COC(=O)CC1CCN2CCC(c3ccccc3)=CC2C1 (stereo not shown) | 0.683 µM |
| COC(=O)C=C1CCN2CCC(O)(c3ccccc3OC)CC2C1 (stereo not shown) [drawing 167] | > 10 µM |

---

Listed here are compounds together with their documented Ki.
- SYSTEM: hMOR (Homo sapiens, UniProt P35372)
- Sequence (P35372 whole entry): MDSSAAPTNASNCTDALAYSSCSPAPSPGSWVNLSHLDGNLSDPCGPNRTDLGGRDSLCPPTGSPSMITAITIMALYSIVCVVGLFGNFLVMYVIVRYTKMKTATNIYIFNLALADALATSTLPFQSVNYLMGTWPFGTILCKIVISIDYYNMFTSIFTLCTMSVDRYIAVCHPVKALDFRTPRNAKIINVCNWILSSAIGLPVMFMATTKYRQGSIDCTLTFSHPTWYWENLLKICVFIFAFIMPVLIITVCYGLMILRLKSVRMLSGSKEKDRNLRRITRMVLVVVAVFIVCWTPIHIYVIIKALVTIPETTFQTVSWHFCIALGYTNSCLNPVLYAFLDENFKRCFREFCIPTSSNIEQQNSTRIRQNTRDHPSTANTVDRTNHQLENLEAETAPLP
- METHOD DESCRIPTION: Radioligand binding assay (Eurofins Cerep), [3H]DAMGO displacement
- EXPERIMENTAL SETUP: Table 3-1; 3 independent experiments; read-out: Ki (nM ± SEM) MOR
MEASUREMENT KIND: Ki (nM)

| SMILES RECORD | MEASUREMENT KIND | MEASURE UNIT | RESULT MODIFIER | MEASURED VALUE |
| --- | --- | --- | --- | --- |
| CO/C=C(/C(=O)OC)C1CCN(CCc2c[nH]c3ccccc23)CC1 | Ki | nM | = | 451 |
| COC(=O)CC1CCN(CCc2c[nH]c3ccccc23)CC1 | Ki | nM | = | 2230 |
| COC(=O)CC1CCN(CCc2c[nH]c3cccc(OC)c23)CC1 | Ki | nM | > | 10000 |

---

- SYSTEM: α2A adrenergic receptor (Homo sapiens)
- Construct: Eurofins Cerep (contract screening)
- Sequence (P08913 1-465): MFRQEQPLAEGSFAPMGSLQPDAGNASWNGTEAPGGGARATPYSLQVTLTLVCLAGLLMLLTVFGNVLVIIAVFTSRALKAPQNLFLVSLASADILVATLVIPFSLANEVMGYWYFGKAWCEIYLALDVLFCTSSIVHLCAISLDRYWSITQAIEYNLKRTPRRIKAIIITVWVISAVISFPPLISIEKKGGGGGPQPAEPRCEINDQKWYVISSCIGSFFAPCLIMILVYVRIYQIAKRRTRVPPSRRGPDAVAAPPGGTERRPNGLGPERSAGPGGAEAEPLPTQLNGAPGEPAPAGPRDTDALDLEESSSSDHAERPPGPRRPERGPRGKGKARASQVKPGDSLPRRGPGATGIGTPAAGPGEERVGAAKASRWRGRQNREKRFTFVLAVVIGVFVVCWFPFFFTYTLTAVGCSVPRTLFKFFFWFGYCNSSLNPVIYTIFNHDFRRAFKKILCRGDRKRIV
- METHOD DESCRIPTION: Radioligand binding assay (Eurofins Cerep), [3H]RX 821002 displacement
- EXPERIMENTAL SETUP: Ki (nM ± SEM) a2A-AR, Table 3-4; 3 independent experiments
Listed here are molecules together with their documented Ki.
MEASUREMENT KIND: Ki (nM)

| MOLECULE | MEASURE UNIT | RESULT MODIFIER | MEASURED VALUE |
| --- | --- | --- | --- |
| COC=C(C(=O)OC)C1CCN(Cc2ccccc2)CC1 [Compound 3-50] | nM | > | 10000 |
| CO/C=C(/C(=O)OC)C1CCN(CCc2c[nH]c3ccccc23)CC1 [Compound 3-23] | nM | = | 741 |
| COC(=O)CC1CCN(CCc2c[nH]c3ccccc23)CC1 [Compound 3-24] | nM | = | 1410 |
